# measured_on: c-Src (Homo sapiens, UniProt P12931)
# Sequence (P12931 whole entry): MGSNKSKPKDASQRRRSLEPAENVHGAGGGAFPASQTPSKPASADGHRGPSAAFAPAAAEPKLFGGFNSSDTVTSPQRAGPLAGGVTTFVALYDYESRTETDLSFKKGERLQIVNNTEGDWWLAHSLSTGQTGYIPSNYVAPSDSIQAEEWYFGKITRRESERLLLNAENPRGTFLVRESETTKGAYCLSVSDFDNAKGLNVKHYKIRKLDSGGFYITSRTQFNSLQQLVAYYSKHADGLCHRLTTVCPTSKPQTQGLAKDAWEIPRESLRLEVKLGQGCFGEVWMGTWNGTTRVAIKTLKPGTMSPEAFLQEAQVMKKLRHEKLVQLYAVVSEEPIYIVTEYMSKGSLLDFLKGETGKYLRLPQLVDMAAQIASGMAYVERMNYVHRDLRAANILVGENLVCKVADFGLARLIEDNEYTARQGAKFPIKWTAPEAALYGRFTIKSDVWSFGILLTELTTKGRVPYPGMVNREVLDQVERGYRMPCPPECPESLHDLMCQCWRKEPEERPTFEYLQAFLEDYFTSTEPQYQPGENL
# protocol: IC50 inhibitory activity against c-Src kinase
# Assay type: biochemical
# condition_description: read-out: c-Src IC50
pIC50: −log10 of the molar value. Square brackets hold non-standard residues; d marks the D form. Peptide text beside a SMILES is read from it. * marks the point of attachment. X1 = Cc1ccc(Nc2ncc3c(n2)N(C)C(=O)N(c2cc(C(=O)*)ccc2C)C3)cn1; Aib = CC(C)(N)C(=O)O
observation_type: pIC50

Observe how each entry below is paired with its result.
compound	measured_on	pIC50
Cc1ccc(Nc2ncc3c(n2)N(C)C(=O)N(c2cc(NC(=O)c4ccc5c(c4)N(CC(C)C)C(=O)[C@H](CC(C)C)N=C5c4ccccc4)ccc2C)C3)cn1 [Example 39]	c-Src (Homo sapiens, UniProt P12931)	6.22 to 6.40
Cc1ccc(Nc2ncc3c(n2)N(C)C(=O)N(c2cc(NC(=O)c4ccc5c(c4)NC(=O)[C@H](Cc4ccccc4C)N=C5c4ccccc4)ccc2C)C3)cn1 [Example 29]	c-Src (Homo sapiens, UniProt P12931)	6.70 to 9.00
Cc1ccc(Nc2ncc3c(n2)N(C)C(=O)N(c2cc(NC(=O)c4ccc5c(c4)NC(=O)[C@H](Cc4cccc(F)c4)N=C5c4ccccc4)ccc2C)C3)cn1 [Example 27]	c-Src (Homo sapiens, UniProt P12931)	6.70 to 9.00
CC1=N[C@H](Cc2ccccc2)C(=O)Nc2cc(C(=O)Nc3ccc(C)c(N4Cc5cnc(Nc6ccc(C)nc6)nc5N(C)C4=O)c3)ccc21 [Example 35]	c-Src (Homo sapiens, UniProt P12931)	6.70 to 9.00
C=CCCC1=N[C@@H](CC(=O)Nc2ccc(C)c(N3Cc4cnc(Nc5ccc(C)nc5)nc4N(C)C3=O)c2)C(=O)N(Cc2ccccc2)c2ccccc21 [Example 46]	c-Src (Homo sapiens, UniProt P12931)	6.70 to 9.00

Record C=CCCC1=N[C@@H](CC(=O)Nc2ccc(C)c(N3Cc4cnc(Nc5ccc(C)nc5)nc4N(C)C3=O)c2)C(=O)N(C)c2ccccc21 [Example 45] , field pIC50: 6.70 to 9.00

Record Cc1ccc(Nc2ncc3c(n2)N(C)C(=O)N(c2cc(NC(=O)c4ccc5c(c4)NC(=O)[C@H](Cc4ccccc4)N=C5c4ccccc4)ccc2C)C3)cn1 [Example 26] , field pIC50: 6.70 to 9.00

Record Cc1ccc(Nc2ncc3c(n2)N(C)C(=O)N(c2cc(C(=O)N[C@H](C(=O)N4CCC[C@@H]4C(=O)NC(C)(C)C(=O)N[C@H](C(=O)N(C)C)C(C)C)C(C)C)ccc2C)C3)cn1 [Example 23] (X1-V[dP][Aib]V-NMe2) , field pIC50: < 6.22
